Listing of recorded koff by entry.
assaySystem: T1, VEGF(8-109) (UniProt P15692 214-315)
T1 construct: range 8-109; Covalently coupled to the BIACORE chip (EDC/NHS); also called vascular endothelial growth factor
T1 sequence (looked up): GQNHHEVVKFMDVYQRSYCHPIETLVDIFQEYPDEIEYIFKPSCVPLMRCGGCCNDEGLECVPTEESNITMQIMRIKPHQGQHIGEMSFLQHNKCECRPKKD
assayNotes: SPR (BIACORE-2000), Fab injected over immobilised VEGF(8-109), 25 C
Reply with just the number (in s⁻¹).

The recorded koff for entry Y0241-6 Fab (Fab, V domains shown, Clone from library YC-86, made on the Y0192 template; The text names point mutations only at T28 and F29; The printed stretch ends in GIN, so residue 34 may also differ from the parent; this change is not applied here) VH: EVQLVESGGGLVQPGGSLRLSCAASGYDYTNYGINWVRQAPGKGLEWVGWINTYTGEPTYAADFKRRFTFSLDTSKSTAYLQMNSLRAEDTAVYYCAKYPHYYGSSHWYFDVWGQGTL VL: DIQLTQSPSSLSASVGDRVTITCRANEQLSNYLNWYQQKPGKAPKVLIYFTSSLHSGVPSRFSGSGSGTDFTLTISSLQPEDFATYYCQQYSTVPWTFGQGTKVEIKR equals 0.000129

The recorded koff for entry Y0239-2 Fab (Fab, V domains shown) VH: EVQLVESGGGLVQPGGSLRLSCAASGYTFTNYGMNWVRQAPGKGLEWVGWINTYTGEPTYAADFKRRFTFSLDTSKSTAYLQMNSLRAEDTAVYYCAKYPHYYKNDKSSHWYFDVWGQGTL VL: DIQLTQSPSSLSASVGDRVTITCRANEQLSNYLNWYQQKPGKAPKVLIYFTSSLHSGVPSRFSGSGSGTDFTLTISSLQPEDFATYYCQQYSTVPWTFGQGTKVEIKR equals 0.000164

Now for a further binder.
The recorded koff for entry Y0240-1 Fab (Fab, V domains shown) VH: EVQLVESGGGLVQPGGSLRLSCAASGYTFTNYGMNWVRQAPGKGLEWVGWINTYTGEPTYAADFKRRFTFSLDTSKSTAYLQMNSLRAEDTAVYYCAKYPHYYLTDHKSHWYFDVWGQGTL VL: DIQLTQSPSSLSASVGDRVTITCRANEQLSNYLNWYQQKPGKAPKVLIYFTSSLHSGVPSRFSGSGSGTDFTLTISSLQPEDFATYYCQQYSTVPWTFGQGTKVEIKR equals 1.3e-05
